Listed here are compounds together with their documented inhibition.
Target: Gag-Pol polyprotein (Human immunodeficiency virus type 1 group M subtype B (isolate HXB2))
Assay: RNase H inhibition, HIV 1 Gag Pol polyprotein, FRET biochemical assay, screening (AID 372)
Conditions: HIV-1 RT RNase H, FRET RNA/DNA substrate fluorescence; at 10 µM; active compounds read high
Among all 100,000 compounds or so, about 770 (0.77%) were called active. The sample holds actives, similar compounds and a random draw of the others, so the mix is not that of the screen.
Give the number; % is assumed, so skip it.

Below: 5 compounds and their reported inhibition.
Cc1ccc(C)n1-c1ccc(Cl)c(O)c1    41
Clc1cccc(Cl)c1OCCN1CCCC1    56
Cc1cc(=O)oc2cc(OCC(=O)c3ccc(Cl)cc3)ccc12    19
O=C(COc1ccccc1[N+](=O)[O-])N/N=C/c1cc(I)ccc1O    5
CC(=O)COc1ccc2c(c1)oc(=O)c1ccccc12    7

Exercise: Field request: inhibition | item: `CC(C)OC(=O)COc1ccc2c(c1)oc(=O)c1ccccc12`
Solution: 0

Exercise: Entry `Cc1c(Cl)c(=O)oc2cc(OCC(=O)c3ccc(Cl)cc3)ccc12` please
Solution: 50

Exercise: Entry `O=C(NC(=S)Nc1ccc2oc(-c3ccccc3)nc2c1)c1ccccc1Cl` please
Solution: 7

Exercise: Entry `Cc1ccc(C)n1-c1ccc(C(=O)O)c(O)c1` please
Solution: 99

Exercise: Entry `Clc1cccc(Cl)c1OCCCN1CCCCC1` please
Solution: 2

Exercise: Entry `Clc1cccc(Cl)c1OCCCN1CCCC1` please
Solution: 7

Exercise: Entry `Cc1nc(=O)c(-c2ccccc2)c(C)n1-c1ccc(C(=O)O)c(O)c1` please
Solution: 0

Exercise: Entry COc1cc(/C=N/N=C2/NC(=O)C(CC(=O)Nc3cccc(Cl)c3Cl)S2)ccc1O (centres undefined) please
Solution: 5

Exercise: Entry `Cc1ccc(P(=O)(c2ccc(C)cc2)C(C)(C)O)cc1` please
Solution: 0

###

Target: Gag-Pol polyprotein (Human immunodeficiency virus type 1 group M subtype B (isolate HXB2))
Assay: RNase H inhibition, HIV 1 Gag Pol polyprotein, FRET biochemical assay, screening (AID 372)
Details: HIV-1 RT RNase H, FRET RNA/DNA substrate fluorescence; at 10 µM
Hit rate of the full screen: of about 100,000 compounds, about 770 (0.77%) were called active. Rule as the data show it: active = inhibition above about 50%; inactive = the rest. For the sample, actives were picked, then their nearest neighbours and some compounds at random.
Pick from active, inactive when you respond.

Cc1ccc(/C=C2/SC(=S)NC2=O)cc1[N+](=O)[O-]    inactive
Cc1cc(S(=O)(=O)Oc2ccc3ccccc3c2)c(Cl)cc1Cl    inactive
CCOC(=O)C1CCCN(C(=O)N2CCOCC2)C1 (stereo unspecified)    inactive
CC1=C(C(=O)Nc2ccc(C)c(Cl)c2)C(c2cccc([N+](=O)[O-])c2)NC(=O)N1 (stereo unspecified)    inactive
Cc1onc(-c2ccccc2Cl)c1C(=O)N1CCN(c2ccc(Cl)cc2[N+](=O)[O-])CC1    active

Exercise: Hi, do you know how `Cc1ccc(/C=C2\SC(=S)N(CCC(=O)Nc3ccc(S(=O)(=O)Nc4nccs4)cc3)C2=O)cc1` came out in this test?
Solution: inactive

Exercise: Entry `O=C(COc1ccccc1Br)Nc1ccc(Cl)c(Cl)c1` please
Solution: inactive
